molecular target: T1, SARS-CoV-2 Beta Variant RBD (SARS-CoV-2 Beta variant); assay: ELISA, RBD coated
T1 construct: domain: RBD; coated on ELISA plates
pEC50: −log10 of the molar value.
endpoint: pEC50

>>> numeric_value("PP1109 MBP-5HVZ-PAPA-RN-25-H6 (VHH, Form: Dimer) VHH: QVQLVESGGGLVQPGGSLRLSCAASGEDYSYNAAHWFRQAPGKEREWVAAINSGGGTYYADSVKGRFTISRDNAKNTVYLQMNSLKPEDTAVYYCAYLGALDRDGYDAWGQGTQVTVSS")
7.77
>>> numeric_value("PP1110 MBP-5HVZ-PAPA-RN-26-H6 (VHH, Form: Dimer) VHH: QVQLVESGGGLVQPGGSLRLSCAASGSISSINSMHWYRQAPGKEREWVAAVSSYGSDYYADSVKGRFTISRDNAKNTVYLQMNSLKPEDTAVYYCAARTVTGFTYGDYWGQGTQVTVSS")
7.77
>>> numeric_value("PP1101 MBP-5HVZ-PAPA-RN-16-H6 (VHH, Form: Dimer) VHH: QVQLVESGGGLVQPGGSLRLSCAASGADFSSNAMHWFRQAPGKAREFVASIDSDKSGYYADSVKGRFTISRDNAKNTVYLQMNSLKPEDTAVYYCNAYSGTDNYGYDYWGQGTQVTVSS")
6.94
>>> numeric_value("PP909 MBP-5HVZ-S2b-A7-H6 (VHH, Form: Dimer) VHH: QVQLVESGGGLVQPGGSLRLSCAASGSSDSWNALHWFRQAPGKEREFVAGISSAGSGYYADSVKGRFTISRDNAKNTVYLQMNSLKPEDTAVYYCNGYEHTTGYDYWGQGTQVTVSS")
8.09
